test.target: T1, His-tagged mouse B7-H3 (mouse, UniProt Q8VE98 29-244, limits assumed)
T1 construct: Bought His-tagged protein coated on the ELISA plate; also called mu B7-H3; murine B7-H3
T1 sequence (looked up): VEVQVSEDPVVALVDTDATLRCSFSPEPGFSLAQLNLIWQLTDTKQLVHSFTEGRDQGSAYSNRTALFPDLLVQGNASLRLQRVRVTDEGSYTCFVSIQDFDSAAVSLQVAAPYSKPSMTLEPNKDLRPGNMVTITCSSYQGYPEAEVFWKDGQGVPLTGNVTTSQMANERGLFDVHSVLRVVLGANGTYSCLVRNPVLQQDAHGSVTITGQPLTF
experimental.details: ELISA, coated His-tagged antigen, scFv-Fc 1 ug/ml
Entries and their measured ELISA OD450 @ 1 ug/ml follow.
Dear colleague, please return just the value in OD450, with no unit written.

Would you please look over these solved cases?
| binder | ELISA OD450 @ 1 ug/ml [OD450] |
| --- | --- |
| 40633p1.1.B3 (scFv, V domains shown, Tested as scFv-Fc (Expi293 supernatant)) VH: EVQLLESGGGLVQPGGSLRLSCAASGFTVSYYGMSWVRQAPGKGLEWVSAIKQDGSEKYYADSVKGRFTISRDNSKNTLYLQMNSLRAEDTAVYYCARHWNDYSNAMNVWGQGTTVTVSS VL: QSVLTQPPSASGTPGQRVTISCSGSTSNIGRESVYWYQQLPGTAPKLLIYTIDQRPSGVPDRFSGSKSGTSASLAISGLQSEDEADYYCGTWDDSLNAWVFGGGTKLTVL | 1.83 |
| 40511p1.1.A1 (scFv, V domains shown, Tested as scFv-Fc (Expi293 supernatant)) VH: DVQLVESGGGVVRPGESLRLSCAASGFTFSNYAMNWVRQAPGEGLEWVSRINYKGYNITYYADSVKGRFTISRDNSKNTLYLQMNSLRAEDTAVYYCAKSGSNSNNFFDYWGLGTLVTVSS VL: EIVLTQSPGTLSVSPGERATLSCRASQSVNSKLAWYQQRPGQAPRLLIYDASSRATGIPDRFSGSGSGTDFTLTISRLEPEDFAVYYCQQYKNWPPLTFGGGTKVEIK | 1.02 |
| 40633p1.1.H11 (scFv, V domains shown, Tested as scFv-Fc (Expi293 supernatant)) VH: EVQLLESGGGLVQPGGSLRLSCAASGFTFSSYPMTWVRQAPGKGLEWVADINSGGGTTLYADAVKGRFTISRDNSKNIVYLQMNSLRGEDTAVYYCAKHLDYYSYGMDVWGQGTTVTVSS VL: QSVLTQPPSASGTPGQRVTISCSGVTSKIGSKYVHWYQQLPGTAPKLLIYRNFERPSGVPDRFSGSTSGTSASLAISGLQSEDEADYYCATWEGALNGWVFGGGTKLTVL | 1.88 |
| 40511p1.2.A4 (scFv, V domains shown, Tested as scFv-Fc (Expi293 supernatant)) VH: DVQLVESGGGVVRPGESLRLSCAASGFTFSSYAESWVRQAPGEGLEWVSIISGSGGNTFYADSVKGRFTISRDNSKNTLYLQMNSLRAEDTAVYYCARFAYGFFDYWGLGTLVTVSS VL: EIVLTQSPGTLSVSPGERATLSCRASQTVGSKLAWYQQKPGQAPRLLIYDASTRATDIPDRFSGSGSGTDFTLTISSLQSEDFAVYYCQQYRNWPPLTFGGGTKVEIK | 1.55 |

Bench note: what ELISA OD450 @ 1 ug/ml did 40579p1.H11 (scFv, V domains shown, Tested as scFv-Fc (Expi293 supernatant)) VH: EVQLLESGGGLVQPGGSLRLSCAASGFTFDDYGMSWVRQAPGKGLEWVSAIRSKASSYATYYADSVKGRFTVSRDNSENTLYLQMNSLRAEDTAVYYCAKHRSNYYFMDVWGQGTTVTVSS VL: EIVLTQSPGTLSLSPGERATLSCRASQSVGSDLAWYQQRPGQAPRLLIYAASSRATDIPDRFSGSGSGTDFTLTISSLQSEDFAVYYCQQYYSWPPLTFGGGTKVEIK show? 0.051

Origin of values: patent US20260008852A1
